# Tested on: crabgrass
# assay-comment: Test B pre/postemergence crabgrass
# Assay type: in vivo, Digitaria sanguinalis
# test-context: Rate 500 g/ha, Postemergence; scale 0 to 10, 0 no effect, 10 complete control
measured-parameter: Crabgrass plant response rating
Write the value as a bare number.

Some solved cases for reference:
Cc1cc(C)c(-n2c(=O)on(C(=O)N(c3ccc(F)cc3)C(C)C)c2=O)c(C)c1 [Compound 60]: 2
Cc1nc(C)c(Cn2c(=O)on(C(=O)N(c3ccc(F)cc3)C(C)C)c2=O)s1 [Compound 232]: 2
CC(C)N(C(=O)n1oc(=O)n(C(C)(C)C)c1=O)c1ccc(Cl)cc1 [Compound 118]: 9
COc1cccc(C)c1-n1c(=O)on(C(=O)N(c2ccc(F)cc2F)C(C)C)c1=O [Compound 74]: 7
CC(C)N(C(=O)n1oc(=O)n(C2CCCCC2)c1=O)c1ccc(F)cc1F [Compound 115]: 6

In: Please list Crabgrass plant response rating recorded for the compound CCCn1c(=O)on(C(=O)N(c2ccc(F)cc2)C(C)C)c1=O [Compound 91]
Out: 9

In: Please list Crabgrass plant response rating recorded for the compound C=CCn1c(=O)on(C(=O)N(c2ccc(Cl)cc2)C(C)C)c1=O [Compound 105]
Out: 9

---

# System: velvetleaf
# assay-comment: Test B pre/postemergence velvetleaf
# Assay type: in vivo, Abutilon theophrasti
# test-context: Postemergence, Rate 62 g/ha; scale 0 to 10, 0 is no effect, 10 is complete control
measured-parameter: Plant response rating, Velvetleaf
Write the value as a bare number.

CC(C)N(C(=O)n1oc(=O)n(CCCCl)c1=O)c1ccc(Cl)cc1: 0
CC(C)N(C(=O)n1oc(=O)n(CCN(C)C(=O)c2ccccc2)c1=O)c1ccc(F)cc1F: 0
C#CC(C)n1c(=O)on(C(=O)N(c2ccc(F)cc2F)C(C)C)c1=O (racemic): 2
C#CCn1c(=O)on(C(=O)N(c2ccccc2)C(C)C)c1=O: 0
Cc1nc(C(C)n2c(=O)on(C(=O)N(c3ccc(F)cc3)C(C)C)c2=O)sc1C (stereo not shown): 0

In: Please list Plant response rating, Velvetleaf recorded for the compound CC(C)N(C(=O)n1oc(=O)n(CCCCCl)c1=O)c1ccccc1
Out: 0

In: Please list Plant response rating, Velvetleaf recorded for the compound C=C(Cl)Cn1c(=O)on(C(=O)N(c2ccc(F)cc2F)C(C)C)c1=O
Out: 0

In: Please list Plant response rating, Velvetleaf recorded for the compound COCCn1c(=O)on(C(=O)N(c2ccc(F)cc2)C(C)C)c1=O
Out: 3

In: Please list Plant response rating, Velvetleaf recorded for the compound CC(=O)OCC(CCl)n1c(=O)on(C(=O)N(c2ccc(F)cc2F)C(C)C)c1=O (racemic)
Out: 0

In: Please list Plant response rating, Velvetleaf recorded for the compound CCC(C)n1c(=O)on(C(=O)N(c2ccccc2)C(C)C)c1=O (stereo not shown)
Out: 0

---

Plant response rating, P. morninglory by entry:
# System: pitted morningglory
# assay-comment: Test D pitted morningglory
# Type: in vivo, Ipomoea lacunosa
# test-context: Rate 125 g/ha, Preemergence; 0 to 100 scale, 0 no injury, 100 complete control
Write the value as a bare number.

CC(C)N(C(=O)n1oc(=O)n(C2CCCCC2)c1=O)c1ccc(F)cc1F: 0
C=CCn1c(=O)on(C(=O)N(c2ccc(Cl)cc2)C(C)C)c1=O: 0
CCn1c(=O)on(C(=O)N(c2ccccc2)C(C)C)c1=O: 20

Here's the next entry for you.
In: Please list Plant response rating, P. morninglory recorded for the compound CC(C)N(C(=O)n1oc(=O)n(C(C)C)c1=O)c1ccc(Cl)cc1
Out: 0

Provenance of the data: patent US6737383B1
